molecular target: RXRβ (Mus musculus, UniProt P28704); test: Co-transfection assay, RXRβ agonist activity; conditions: CV-1 cells, luciferase reporter, read-out: RXRβ Pot
Parameter EC50: see the listing below.
parameter: EC50 (nM)

compound="CC(/C=C/CC1(c2cc(C(C)(C)C)cc3c2CCC3(C)C)CC1)=C\\C(=O)O [Compound 107]" measured_value=22
compound="CC(/C=C/CC1(c2ccc3c(c2)C(C)(C)CCC3(C)C)CC1)=C\\C(=O)O [Compound 101]" measured_value=6

====

biological target: UniProt:P19793; assay: Co-transfection assay, RXRα agonist activity; settings: CV-1 cells, luciferase reporter, read-out: RXRα Pot
Sequence (P19793 whole entry): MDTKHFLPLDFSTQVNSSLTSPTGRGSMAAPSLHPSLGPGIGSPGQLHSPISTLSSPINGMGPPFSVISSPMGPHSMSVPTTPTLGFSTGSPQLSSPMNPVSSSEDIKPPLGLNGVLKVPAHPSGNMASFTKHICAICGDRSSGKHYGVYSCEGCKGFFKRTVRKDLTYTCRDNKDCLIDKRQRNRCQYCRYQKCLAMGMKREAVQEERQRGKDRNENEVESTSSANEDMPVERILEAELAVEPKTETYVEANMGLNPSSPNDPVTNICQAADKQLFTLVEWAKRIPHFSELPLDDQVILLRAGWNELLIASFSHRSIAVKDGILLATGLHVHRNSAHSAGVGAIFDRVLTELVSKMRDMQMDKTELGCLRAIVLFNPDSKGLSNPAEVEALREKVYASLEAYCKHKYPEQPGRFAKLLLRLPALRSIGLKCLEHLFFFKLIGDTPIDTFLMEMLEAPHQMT
Parameter EC50: see the listing below.
parameter: EC50 (nM)

chemical_structure=CC(/C=C/CC1(c2ccc3c(c2)C(C)(C)CCC3(C)C)CCCC1)=C\C(=O)O measured_value=63
chemical_structure=CC(/C=C/CC1(c2ccc3c(c2)C(C)(C)CCC3(C)C)CC1)=C\C(=O)O measured_value=13
chemical_structure=CC(/C=C/CC1(c2cc(C(C)(C)C)cc3c2CCC3(C)C)CC1)=C\C(=O)O measured_value=34

====

Target or system RARα (Homo sapiens, UniProt P10276): recorded Kd listed per item.
parameter: Kd (nM)

compound="CC(/C=C/CC1(c2cc(C(C)(C)C)cc(C(C)(C)C)c2)CC1)=C\\C(=O)O [Compound 105]" measurement_units=nM value_relation_sign=> measured_value=5000
compound="CC(/C=C/CC1(c2ccc3c(c2)C(C)(C)CCC3(C)C)CC1)=C\\C(=O)O [Compound 101]" measurement_units=nM value_relation_sign== measured_value=644

====

Target: RARγ (Homo sapiens)
Sequence (P13631 1-454): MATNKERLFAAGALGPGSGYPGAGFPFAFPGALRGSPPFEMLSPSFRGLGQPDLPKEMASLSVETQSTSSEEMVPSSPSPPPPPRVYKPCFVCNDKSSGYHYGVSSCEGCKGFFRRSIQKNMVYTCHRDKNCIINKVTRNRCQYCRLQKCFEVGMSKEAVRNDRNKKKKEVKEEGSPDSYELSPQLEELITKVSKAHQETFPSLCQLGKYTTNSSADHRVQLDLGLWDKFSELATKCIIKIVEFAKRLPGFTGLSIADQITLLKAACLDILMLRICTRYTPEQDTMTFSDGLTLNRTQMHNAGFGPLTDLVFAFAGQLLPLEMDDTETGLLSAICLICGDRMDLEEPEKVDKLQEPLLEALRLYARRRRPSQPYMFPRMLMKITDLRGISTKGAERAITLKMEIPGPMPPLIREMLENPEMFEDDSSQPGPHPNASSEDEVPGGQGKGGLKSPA
Parameter Kd: see the listing below.
parameter: Kd (nM)

chemical_structure=CC(/C=C/CC1(c2cc(C(C)(C)C)cc(C(C)(C)C)c2)CC1)=C\C(=O)O value_relation_sign=> measured_value=5000
chemical_structure=CC(/C=C/CC1(c2ccc3c(c2)C(C)(C)CCC3(C)C)CC1)=C\C(=O)O value_relation_sign== measured_value=552

====

Target: RXRβ (Mus musculus)
Sequence (P28704 1-520): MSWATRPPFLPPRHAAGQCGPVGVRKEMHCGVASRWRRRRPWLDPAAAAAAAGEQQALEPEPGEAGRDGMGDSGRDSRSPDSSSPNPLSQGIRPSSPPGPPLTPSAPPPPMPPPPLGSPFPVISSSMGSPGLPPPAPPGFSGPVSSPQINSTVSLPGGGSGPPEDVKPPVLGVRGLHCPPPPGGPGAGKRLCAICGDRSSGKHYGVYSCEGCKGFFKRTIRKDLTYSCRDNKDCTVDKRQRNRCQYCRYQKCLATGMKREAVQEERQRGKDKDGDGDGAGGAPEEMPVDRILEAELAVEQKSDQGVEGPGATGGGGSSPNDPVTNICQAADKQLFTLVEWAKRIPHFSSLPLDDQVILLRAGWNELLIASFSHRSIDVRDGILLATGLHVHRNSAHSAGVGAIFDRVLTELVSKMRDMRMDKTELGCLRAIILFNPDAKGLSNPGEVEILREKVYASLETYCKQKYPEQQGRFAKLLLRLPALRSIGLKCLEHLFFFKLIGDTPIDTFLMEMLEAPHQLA
pKd: −log10 of the molar value.
parameter: pKd

chemical_structure=CC(/C=C/CC1(c2ccc3c(c2)C(C)(C)CCC3(C)C)CCCC1)=C\C(=O)O measured_value=6.45

====

tested on: RPMI 8226; experiment: Incorporation of 3H-thymidine, RPMI 8226; format: cell-based; settings: Homo sapiens, 96 hours incubation, then 6 hours 3H-thymidine, read-out: TdR IC50 RPMI 8226
pIC50: −log10 of the molar value.
Parameter pIC50: see the listing below.
parameter: pIC50

compound="CC(/C=C/CC1(c2ccc3c(c2)C(C)(C)CCC3(C)C)CC1)=C\\C(=O)O [Compound 101]" value_relation_sign=> measured_value=10.00
compound="C/C(=C\\c1ccc(C(=O)O)cc1)c1ccc2c(c1)C(C)(C)CCC2(C)C [TTNPB]" value_relation_sign== measured_value=9.70

====

Target: RARβ (Homo sapiens)
Sequence (P10826 1-448 isoform P10826-2): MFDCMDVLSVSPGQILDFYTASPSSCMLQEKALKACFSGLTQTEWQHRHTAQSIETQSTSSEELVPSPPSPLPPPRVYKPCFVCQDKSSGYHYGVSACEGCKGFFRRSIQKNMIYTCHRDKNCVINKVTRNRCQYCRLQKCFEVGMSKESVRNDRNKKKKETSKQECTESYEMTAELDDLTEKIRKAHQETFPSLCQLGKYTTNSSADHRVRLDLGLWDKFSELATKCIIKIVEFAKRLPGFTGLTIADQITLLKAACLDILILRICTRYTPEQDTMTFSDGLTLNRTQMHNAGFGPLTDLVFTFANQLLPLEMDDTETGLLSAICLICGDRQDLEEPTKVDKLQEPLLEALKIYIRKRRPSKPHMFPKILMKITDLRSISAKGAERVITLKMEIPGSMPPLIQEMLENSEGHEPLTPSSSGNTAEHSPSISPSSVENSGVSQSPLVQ
pKd: −log10 of the molar value.
parameter: pKd

compound="CC(/C=C/CC1(c2cc3c(cc2C)C(C)(C)CCC3(C)C)CC1)=C\\C(=O)O [Compound 102]" parameter=pKd measured_value="< 5.30"
compound="CC(/C=C/CC1(c2cc(C(C)(C)C)cc3c2CCC3(C)C)CC1)=C\\C(=O)O [Compound 107]" parameter=pKd measured_value="< 5.30"
compound="CC(/C=C/CC1(c2ccc3c(c2)C(C)(C)CCC3(C)C)CC1)=C\\C(=O)O [Compound 101]" parameter=pKd measured_value=6.33
compound="CC(/C=C/CC1(c2ccc3c(c2)C(C)(C)CCC3(C)C)CCCC1)=C\\C(=O)O [Compound 108]" parameter=pKd measured_value="< 5.30"

====

Parameter pEC50: see the listing below.
biological target: RARγ (Homo sapiens); assay: Co-transfection assay, RARγ agonist activity; conditions: CV-1 cells, luciferase reporter, read-out: RARγ Pot
pEC50: −log10 of the molar value.
parameter: pEC50

chemical_structure=CC(/C=C/CC1(c2cc(C(C)(C)C)cc3c2CCC3(C)C)CC1)=C\C(=O)O measured_value="< 5.00"
chemical_structure=CC(/C=C/CC1(c2cc3c(cc2C)C(C)(C)CCC3(C)C)CC1)=C\C(=O)O measured_value="< 5.00"
chemical_structure=CC(/C=C/CC1(c2ccc3c(c2)C(C)(C)CCC3(C)C)CCCC1)=C\C(=O)O measured_value="< 5.00"
chemical_structure=CC(/C=C/CC1(c2ccc3c(c2)C(C)(C)CCC3(C)C)CC1)=C\C(=O)O measured_value=7.62

====

molecular target: RARα (Homo sapiens, UniProt P10276); assay: Co-transfection assay, RARα agonist activity; conditions: CV-1 cells, luciferase reporter, read-out: RARα Pot
Sequence (P10276 whole entry): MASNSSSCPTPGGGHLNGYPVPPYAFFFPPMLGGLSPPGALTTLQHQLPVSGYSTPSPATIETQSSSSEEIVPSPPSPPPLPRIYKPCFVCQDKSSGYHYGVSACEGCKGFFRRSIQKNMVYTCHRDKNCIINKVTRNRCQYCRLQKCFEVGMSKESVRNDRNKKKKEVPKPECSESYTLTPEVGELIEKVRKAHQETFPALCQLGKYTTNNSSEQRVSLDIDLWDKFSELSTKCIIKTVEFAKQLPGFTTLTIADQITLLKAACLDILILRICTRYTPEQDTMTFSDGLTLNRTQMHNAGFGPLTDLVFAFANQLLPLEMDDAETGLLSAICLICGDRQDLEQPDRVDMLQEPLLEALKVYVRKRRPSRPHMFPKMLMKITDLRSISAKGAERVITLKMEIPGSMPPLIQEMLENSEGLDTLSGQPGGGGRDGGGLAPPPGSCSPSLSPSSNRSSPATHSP
parameter: EC50

compound="CC(/C=C/CC1(c2cc3c(cc2C)C(C)(C)CCC3(C)C)CC1)=C\\C(=O)O [Compound 102]" tested_on="RARα (Homo sapiens, UniProt P10276)" measured_value="> 10 µM"
compound="CC(/C=C/CC1(c2ccc3c(c2)C(C)(C)CCC3(C)C)CC1)=C\\C(=O)O [Compound 101]" tested_on="RARα (Homo sapiens, UniProt P10276)" measured_value="0.059 µM"
compound="CC(/C=C/CC1(c2cc(C(C)(C)C)cc3c2CCC3(C)C)CC1)=C\\C(=O)O [Compound 107]" tested_on="RARα (Homo sapiens, UniProt P10276)" measured_value="> 10 µM"
compound="CC(/C=C/CC1(c2ccc3c(c2)C(C)(C)CCC3(C)C)CCCC1)=C\\C(=O)O [Compound 108]" tested_on="RARα (Homo sapiens, UniProt P10276)" measured_value="> 10 µM"

====

test system: AML-193; assay: Incorporation of 3H-thymidine, AML-193; settings: Homo sapiens, read-out: TdR IC50 AML-193 (nM)
parameter: IC50

compound=CC(/C=C/CC1(c2ccc3c(c2)C(C)(C)CCC3(C)C)CC1)=C\C(=O)O tested_on=AML-193 measured_value="< 0.1 nM"
compound=C/C(=C\c1ccc(C(=O)O)cc1)c1ccc2c(c1)C(C)(C)CCC2(C)C tested_on=AML-193 measured_value="0.1 nM"
compound="CC1=C(/C=C/C(C)=C\\C=C\\C(C)=C\\C(=O)O)C(C)(C)CCC1 [Compound 9-cis, 9-cis retinoic acid]" tested_on=AML-193 measured_value="113 nM"
